- method-summary: protein stability index of a GFP-peptide fusion (yeast GPS) (PSI 1-4); higher = more stable; sorted into four equal gates, so the index is relative within each strain
- details: doa10∆
readout-type: protein stability index
Numbers only.

Some sequences with known protein stability index results, for comparison:
[
  {
    "sequence-string": "QPKLNPMASSSSFGSES [SWI1]",
    "protein stability index": 2.85
  },
  {
    "sequence-string": "RKKKFVLDVDPKYAKQK [ISW2]",
    "protein stability index": 2.91
  },
  {
    "sequence-string": "PNTSDNNNNSNNHNMRN [SWI1]",
    "protein stability index": 3.12
  },
  {
    "sequence-string": "LKIIYTGLCSFDYSVIL [YJL039C/NUP192]",
    "protein stability index": 1.73
  },
  {
    "sequence-string": "PNGEGSKTWETYEMRIH [RPS20]",
    "protein stability index": 3.09
  }
]

Note: attention shifts to another entry.
protein stability index for IRKLVKNGTIVKKAVTV [RPL19A] ?
2.88

====

Field: protein stability index. Provide a value for each of the sequences that follow.
- method-summary: protein stability index of a GFP-peptide fusion (yeast GPS) (PSI 1-4); higher = more stable; sorted into four equal gates, so the index is relative within each strain
- details: san1∆

Some sequences with known protein stability index results, for comparison:
[
  {
    "sequence-string": "YLEDIIGTANYKPLIEE [SMC4]",
    "assay-value": 3.17
  },
  {
    "sequence-string": "KSLGLKLPLSVINVSAQ [RPS17A]",
    "assay-value": 1.41
  },
  {
    "sequence-string": "TNNVLRKLGLLGDKEDE [MTW1]",
    "assay-value": 1.85
  },
  {
    "sequence-string": "VLKVYSMINNSNQAVGQ [SRB8]",
    "assay-value": 2.83
  }
]

Go through the list and state protein stability index for each entry.
1. MIYDDAHEISQGVYGAV [BRR2]
2. TGSLMGGNSTQNTSNMN [YGR119C/NUP57]
3. PSEIPDAHKAEQEDIIE [SWI3]
4. IAASAFLSLLNLATKGM [REC8]
5. CAECSSKLSLSRTDAVR [RPC10]
6. NDENDDEFYINVDKNLN [RPN14]
7. VTFSVMPPKKSWRNITN [SMC4]

1: 2.83; 2: 3.07; 3: 3.46; 4: 1.71; 5: 2.51; 6: 2.94; 7: 2.23

Go through the list and state protein stability index for each entry.
1. PDPNFENSIGYNNRKCW [PRP8]
2. GINNLSEIWDVSRGQSA [PRP8]

1. 2.98
2. 2.74

====

- method-summary: protein stability index of a GFP-peptide fusion (yeast GPS) (PSI 1-4); higher = more stable; sorted into four equal gates, so the index is relative within each strain
- details: san1∆
readout-type: protein stability index
Numbers only.

[
  {
    "sequence-string": "NTRKNMSISLESSKALA [DIS3]",
    "protein stability index": 1.96
  },
  {
    "sequence-string": "RAIYSYLSGAIPNQEVL [YDL116W/NUP84]",
    "protein stability index": 2.5
  },
  {
    "sequence-string": "LFQNVPEQGEEPMKQLN [YAR002W/NUP60]",
    "protein stability index": 3.51
  },
  {
    "sequence-string": "QSNEDTFLPSYMKFSNK [RRI2]",
    "protein stability index": 3.17
  }
]

Go through the list and state protein stability index for each entry.
1. LKSASKETAPVIDTLAA [RPL28]
2. NFIVHSPMLKRIKITAN [GRR1]

2.68
1.29

Go through the list and state protein stability index for each entry.
1. DILSQILYGLVDKGAIM [YJL039C/NUP192]
2. GSNNAQTSRGLFGNNNT [YGL172W/NUP49]

1: 2.95; 2: 3.14

Go through the list and state protein stability index for each entry.
1. LPLRLQFNEFIQIMANI [PGD1]
2. GNVFSPIDNNIIFASTK [SNU114]
3. PLVAHLGLYVGVDDQIL [YJL039C/NUP192]
4. LSNIEAQFLRSVVHPGE [RPO21]
5. RCTKIIKGNGESDETTT [RPT1]
6. TSDLVKSLGLKLPLSVI [RPS17A]
7. TQIVAKFPETSYPILNE [SIN4]
8. YKRQKSSLLYTYDENDD [ESC2]

1. 1.28
2. 2.97
3. 2.26
4. 2.45
5. 3.36
6. 1.86
7. 2.91
8. 1.17

Go through the list and state protein stability index for each entry.
1. RAKAEAAEFRYKYGYDM [SCL1]
2. LQNCCIIDVGTHHTDII [ARP9]
3. SVMMQDSPASNEDDLTV [RPO31]

1. 2.71
2. 1.51
3. 2.78
